Tested on: SEM cells
Assay: cell viability relative to DMSO control; higher = less cytotoxic
Conditions: HPLM + 10% dialyzed FBS; 48 h; 1.71 µM

{"compound": "N#C/C(=C\\c1ccc(O)c(O)c1)C(=O)NCc1ccccc1", "units_of_measure": "%", "cell viability": 104}
{"compound": "CCc1cc(C(N)=S)ccn1", "units_of_measure": "%", "cell viability": 89.8}
{"compound": "OC[C@H]1O[C@H](C[C@@H]1O)N2\\C=C(F)/C(=O)NC2=O", "units_of_measure": "%", "cell viability": 44.4}
{"compound": "C[C@@H]1O[C@@H](O[C@H]2C[C@@H](O)[C@]3(CO)[C@H]4[C@H](O)C[C@]5(C)[C@@H](C6=CC(=O)OC6)CC[C@]5(O)[C@@H]4CC[C@]3(O)C2)[C@H](O)[C@H](O)[C@H]1O", "units_of_measure": "%", "cell viability": 5.97}
{"compound": "OC1=CC2=C(C=C1)C(=O)\\C(=C(O2)\\C3=CC(=C(O)C=C3)O)O", "units_of_measure": "%", "cell viability": 104}
{"compound": "O=C(CCc1ccc(O)cc1)c1c(O)cc(O)cc1O", "units_of_measure": "%", "cell viability": 94.5}
{"compound": "CC(=O)N[C@@H]1[C@@H](NC(N)=N)\\C=C(/O[C@H]1[C@H](O)[C@H](O)CO)C(O)=O", "units_of_measure": "%", "cell viability": 106}
{"compound": "N#CC(c1ccnc(NCCc2cccnc2)n1)c1nc2ccccc2s1 (stereo not given)", "units_of_measure": "%", "cell viability": 131}
{"compound": "O=[N+]([O-])c1ncc[nH]1", "units_of_measure": "%", "cell viability": 84}
{"compound": "C[C@H]1C[C@H]2[C@@H]3CC[C@](O)(C(=O)CO)[C@@]3(C)C[C@H](O)[C@@H]2[C@@]\\4(C)/C=C\\C(=O)\\C=C14", "units_of_measure": "%", "cell viability": 41.3}
{"compound": "CCN1\\C=C(\\C(O)=O)C(=O)C2=C1N=C(N3CCNCC3)C(=C2)F", "units_of_measure": "%", "cell viability": 88.5}
{"compound": "O=S(=O)([O-])CCS.[Na+]", "units_of_measure": "%", "cell viability": 107}
{"compound": "Cc1cn([C@H]2C=C[C@@H](CO)O2)c(=O)[nH]c1=O", "units_of_measure": "%", "cell viability": 130}
{"compound": "O=C([O-])C[C@H](O)C[C@H](O)/C=C/c1c(C2CC2)nc2ccccc2c1-c1ccc(F)cc1", "units_of_measure": "%", "cell viability": 83.9}
{"compound": "CC1(CN2CCC(n3c(=O)[nH]c4ccccc43)CC2)OCc2ccccc2-n2cccc21 (stereo not given)", "units_of_measure": "%", "cell viability": 105}
{"compound": "CN(C)c1ccc2nc3ccc(N(C)C)cc3[s+]c2c1", "units_of_measure": "%", "cell viability": 102}
{"compound": "COc1cc2ncn(-c3cc(OCc4ccccc4[S+](C)(=O)[O-])c(C#N)s3)c2cc1OC", "units_of_measure": "%", "cell viability": 103}
{"compound": "N[C@H]2CN(CC12CC1)c3c(F)cc4c(c3Cl)[N@@](C=C(C4=O)C(=O)O)C5C[C@H]5F (stereo not given in full)", "units_of_measure": "%", "cell viability": 84.7}
{"compound": "O=C(Nc1nnc(-c2ccco2)o1)c1cc(-c2ccccc2)nc2ccccc12", "units_of_measure": "%", "cell viability": 106}
{"compound": "N[S+](=O)([O-])c1cc2c(cc1Cl)NC(C(Cl)Cl)N[S+]2(=O)[O-] (stereo not given)", "units_of_measure": "%", "cell viability": 91.5}
